# Test system: TNF production
# ASSAY_EXPLANATION: Inhibition of LPS-stimulated TNF production in the mouse macrophage line RAW 264.7 (ELISA)
# Assay type: cell-based
# CONDITION_SUMMARY: Mus musculus, RAW264.7, 6 h; RAW cells; DRUG [10 µM]; LPS at 10 ng/mL; read-out: TNF LEVEL % Control (LPS alone); Ave. ± S.D.
activity at 10 µM overview
ASSAY_METRIC: activity at 10 µM (%)

* CC(=O)CCCCn1c(=O)c2c(ncn2C)n(C)c1=O | 43
* COCCOC(=O)C1=C(C)NC(C)=C(C(=O)OC(C)C)C1c1cccc([N+](=O)[O-])c1 (stereo not drawn) | 37
* COC(=O)C1=C(C)NC(C)=C(C(=O)OC)C1c1ccccc1[N+](=O)[O-] | 79

---

# Test system: TNF production
# ASSAY_EXPLANATION: Inhibition of LPS-stimulated TNF production in the human monocytic cell line THP-1 (ELISA)
# Assay type: cell-based
# CONDITION_SUMMARY: THP-1 cells; DRUG [10 µM]; LPS 1 µg/mL
# Description: Cultures were maintained by the addition of fresh growth medium to a T-75 or T-150 flask of cells in suspension, or by pelleting the cells and re-suspending them in the appropriate volume of fresh medium. […] THP-1 cells were plated into 24-well plates at a density of 1.0 x 10^6 cells per mL in 0.5 mL medium per well. […] Levels of secreted cytokine were measured in cell supernatants as for TNF. Cell-associated species were measured in cell lysates which were prepared by repetitive freeze-thawing of cells. […]
Below: a set of entries, each annotated with reported TNF LEVEL % Control (LPS alone); Ave. ± S.D..
ASSAY_METRIC: TNF LEVEL % Control (LPS alone); Ave. ± S.D. (% Control)

- COc1ccc(CCN(C)CCC[C@@](C#N)(c2ccc(OC)c(OC)c2)C(C)C)cc1OC [(-)-Verapamil, (-)-verapamil]: 53
- COc1ccc(CCN(C)CCC[C@](C#N)(c2ccc(OC)c(OC)c2)C(C)C)cc1OC [(+)-Verapamil, (+)-verapamil]: 51
- COC(=O)C1=C(C)NC(C)=C(C(=O)OC(C)(C)CN(C)CCC(c2ccccc2)c2ccccc2)C1c1cccc([N+](=O)[O-])c1 (centres unmarked) [Rec 15/2375]: 57
- CCCCOc1cc(CC2CNC(=O)N2)ccc1OC (centres unmarked) [RO 20-1724]: 45
- NCC(O)c1ccc(O)c(O)c1 (centres unmarked) [Arterenol]: 1

---

# System: TNF production
# ASSAY_EXPLANATION: Inhibition of LPS-stimulated TNF production in the mouse macrophage line RAW 264.7 (ELISA)
# Format: cell-based
# CONDITION_SUMMARY: Mus musculus, RAW264.7, 6 h; RAW cells; DRUG [10 µM]; LPS at 10 ng/mL; read-out: TNF LEVEL % Control (LPS alone); Ave. ± S.D.
Output criterion met for records whose activity at 10 µM is lower than 40%, criterion not met for records at or above 40%.

- COc1ccc([C@@H]2Sc3ccccc3N(CCN(C)C)C(=O)[C@@H]2OC(C)=O)cc1 [Diltiazem]: criterion not met
- NS(=O)(=O)c1cc(C(=O)O)c(NCc2ccco2)cc1Cl [Furosemide]: criterion not met
- COc1ccc(CCN(C)CCCC(C#N)(c2ccc(OC)c(OC)c2)C(C)C)cc1OC (racemic) [(±)-Verapamil, verapamil]: criterion met
- COC(=O)C1=C(C)NC(C)=C(C(=O)OCCN(C)Cc2ccccc2)C1c1cccc([N+](=O)[O-])c1 (stereo not drawn) [Nicardipine]: criterion not met
- O=C1CCC(N2C(=O)c3ccccc3C2=O)C(=O)N1 (stereo not drawn) [Thalidomide]: criterion not met
- CC(C)(C)NCC(O)c1cc(O)cc(O)c1 (stereo not drawn) [Terbutaline, terbutaline]: criterion met
- N=C(N)NC(=O)c1nc(Cl)c(N)nc1N [Amiloride, amiloride]: criterion not met
